- measurement_target: human ether-à-go-go-related gene (hERG) potassium channel (human);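 further: peak tail current of the secondary pulse compared with the same well before compound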
- Sequence (Q12809 whole entry, looked up): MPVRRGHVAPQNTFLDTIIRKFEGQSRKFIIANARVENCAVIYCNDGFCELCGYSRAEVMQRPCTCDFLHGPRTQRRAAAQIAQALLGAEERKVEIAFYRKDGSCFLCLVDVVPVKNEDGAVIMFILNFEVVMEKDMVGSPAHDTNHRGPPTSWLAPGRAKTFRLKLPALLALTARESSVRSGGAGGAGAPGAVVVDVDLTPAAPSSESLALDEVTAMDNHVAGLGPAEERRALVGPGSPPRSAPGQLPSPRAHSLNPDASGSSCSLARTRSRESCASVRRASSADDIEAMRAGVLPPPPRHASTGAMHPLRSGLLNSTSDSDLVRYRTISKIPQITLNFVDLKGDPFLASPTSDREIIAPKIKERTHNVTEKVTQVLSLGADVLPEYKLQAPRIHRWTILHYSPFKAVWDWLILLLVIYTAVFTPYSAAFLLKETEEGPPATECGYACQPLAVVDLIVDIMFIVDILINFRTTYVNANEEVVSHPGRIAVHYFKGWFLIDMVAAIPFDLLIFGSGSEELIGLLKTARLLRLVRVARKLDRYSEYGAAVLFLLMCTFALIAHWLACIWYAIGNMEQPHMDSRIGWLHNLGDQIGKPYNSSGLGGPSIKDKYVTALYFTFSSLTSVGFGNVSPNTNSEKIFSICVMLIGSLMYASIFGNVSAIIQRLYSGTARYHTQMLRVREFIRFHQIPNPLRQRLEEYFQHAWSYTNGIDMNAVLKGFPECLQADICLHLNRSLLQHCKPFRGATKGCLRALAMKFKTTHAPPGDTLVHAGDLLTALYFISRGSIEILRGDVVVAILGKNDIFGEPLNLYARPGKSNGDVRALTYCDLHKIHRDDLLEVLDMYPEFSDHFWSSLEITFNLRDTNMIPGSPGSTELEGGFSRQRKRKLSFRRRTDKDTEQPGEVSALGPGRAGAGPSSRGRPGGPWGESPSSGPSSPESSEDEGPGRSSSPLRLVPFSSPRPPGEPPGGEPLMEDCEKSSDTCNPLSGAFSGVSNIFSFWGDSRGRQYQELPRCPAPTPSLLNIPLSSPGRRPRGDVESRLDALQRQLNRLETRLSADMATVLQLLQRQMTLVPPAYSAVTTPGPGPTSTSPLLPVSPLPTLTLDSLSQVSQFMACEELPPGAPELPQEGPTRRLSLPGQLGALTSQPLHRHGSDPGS
- experiment: primary screen, population patch clamp on CHO cells stably expressing hERG; higher = less effect of the substance
The whole screen tested about 310,000 compounds, of which about 14,000 (4.5%) showed an effect of 50% or more. The effect is printed as a negative number. The list comes from a sample in which strong results are over-represented; it also holds close analogues and randomly drawn compounds.
Reported hERG current change (%, negative = inhibition) at 10uM by item:
readout: hERG current change (%, negative = inhibition) at 10uM (%)

{"molecule": "CCOC(=O)C1=C(C)NC(=O)NC1", "numeric_result": -3.56}
{"molecule": "CCC(OC(=O)c1nsc(Cl)c1Cl)C(=O)NCCc1ccccc1 (centres unmarked)", "numeric_result": 16}
{"molecule": "CCn1cc(CN2CCCC(C(=O)Nc3ccc(-c4cscn4)cc3)C2)c(C)n1 (centres unmarked)", "numeric_result": -8.71}
{"molecule": "CCN(CC)S(=O)(=O)c1ccc2c(c1)nc(SCC(=O)NC1CC1)n2-c1ccccc1OC", "numeric_result": -56.2}
{"molecule": "CC(=O)c1c(N2CCCC2)nc(=S)n(-c2ccccc2)c1C", "numeric_result": -0.251}
{"molecule": "CN(CCOc1ccc(Cl)cc1)CC(=O)Nc1ccc(OC(F)F)cc1", "numeric_result": -71.4}
{"molecule": "Cc1oc2c(c(C)cc3oc(=O)c(CC(=O)NCCCN4CCCC4=O)c(C)c32)c1C", "numeric_result": -0.519}
{"molecule": "CCn1c(C)c(C(C)=O)c(N2CCN(c3cccc(Cl)c3)CC2)nc1=S", "numeric_result": -27.6}
{"molecule": "CCOC(=O)CC1C(=O)NCCN1C(=O)c1c(F)cccc1F (centres unmarked)", "numeric_result": 16.1}
{"molecule": "CN(C(=S)Nc1ccc(SC(F)F)cc1)C(c1ccccc1)c1ccccc1", "numeric_result": -0.128}
{"molecule": "CC(=O)c1c(N2CCN(c3ccc(F)cc3)CC2)nc(=S)n(-c2ccccc2)c1C", "numeric_result": -75}
{"molecule": "CC/C(=N\\NC(=O)C1CC1)c1cccc(Cl)c1", "numeric_result": 30.9}
{"molecule": "O=C(NCc1ccc2c(c1)OCO2)C1(S(=O)(=O)c2ccccc2)CC1", "numeric_result": 13.4}
{"molecule": "CN1CCN(Cc2ccc(Sc3ccc(Cl)cc3)c([N+](=O)[O-])c2)CC1", "numeric_result": -80.4}
{"molecule": "CC(=O)c1cc(CN2CCC(C(=O)Nc3cccc(-c4cscn4)c3)CC2)cs1", "numeric_result": -30.5}
{"molecule": "CC(=O)c1c(N2CCN(c3ccccc3)CC2)nc(=S)n(-c2ccccc2)c1C", "numeric_result": -20.1}
{"molecule": "Cc1ccc(Sc2ccc(CN3CCCC3)cc2[N+](=O)[O-])cc1", "numeric_result": -83}
{"molecule": "CCCCn1c(SC(C)C(=O)c2ccc(OC)cc2)nc2cc(S(N)(=O)=O)ccc21 (centres unmarked)", "numeric_result": -18.1}
{"molecule": "CCN(CC)S(=O)(=O)c1ccc2c(c1)nc(SCC(=O)N1CCOCC1)n2-c1ccccc1OC", "numeric_result": -31.1}
{"molecule": "COC(=O)C1=C(C)Nc2nnnn2C1c1ccccc1Cl (centres unmarked)", "numeric_result": -2.51}
{"molecule": "COc1ccc(-n2nnnc2SC(C)C(N)=O)cc1 (centres unmarked)", "numeric_result": 8.68}
{"molecule": "CC(C)Cc1nnc(NC(=O)CCC(=O)N2CCC3(CC2)OCCO3)s1", "numeric_result": 12.3}
{"molecule": "CCOc1ccccc1-n1c(=O)c2ccccc2c2ccccc2c1=O", "numeric_result": -6.99}
{"molecule": "COc1ccc(CN(C)C(=S)Nc2ccc(OC(F)F)cc2)cc1", "numeric_result": -58.9}
{"molecule": "CC(OC(=O)c1nsc(Cl)c1Cl)C(=O)NCCc1ccccc1 (centres unmarked)", "numeric_result": -65.4}
{"molecule": "COc1ccc(N2CCN(c3nc(=S)n(-c4ccccc4)c(C)c3C(C)=O)CC2)cc1", "numeric_result": -9.97}
{"molecule": "COCCCn1c(SCC(=O)NNC(=O)c2cccc(O)c2)nnc1-c1ccncc1", "numeric_result": 5.74}
{"molecule": "O=[N+]([O-])c1ccc(Cl)cc1CN1CCCCCC1", "numeric_result": -3.36}
{"molecule": "Cc1ccc(Sc2ccc(C(=O)N3CCOCC3)cc2[N+](=O)[O-])cc1", "numeric_result": -32.3}
{"molecule": "COc1ccc(NC(=O)CN(C)CCOc2ccc(Cl)cc2)cc1OC.O=C(O)C(=O)O", "numeric_result": -17.4}
{"molecule": "CCn1cc(CN2CCC(C(=O)Nc3cccc(-c4cccc(Cl)c4)c3)CC2)c(C)n1", "numeric_result": -78.9}
{"molecule": "Cc1ccc(Cl)c(OC(=O)c2nn(C(C)C)c(=O)c3ccccc23)c1", "numeric_result": -2.19}
{"molecule": "CN(C)CCCN(Cc1ccccc1)C(=S)Nc1ccc(SC(F)F)cc1", "numeric_result": -75.1}
{"molecule": "COc1ccccc1-n1c(SCC(=O)NC2CC2)nc2ccccc2c1=O", "numeric_result": -23.1}
{"molecule": "Cc1c(CN2CCC(C(=O)Nc3cccc(-c4cccc(Cl)c4)c3)CC2)cnn1C", "numeric_result": -61.4}
